- protocolDescription: basal RPMI8226 mitochondrial membrane potential changes, profiling panel, cell-based, JC-1 fluorescence, 24 h, 100 nL compound (AID 1169); further: test concentration not given here
- conditionNotes: RPMI8226 myeloma, JC-1 mitochondrial potential fluorescence, higher = more signal
Tag: T if measured z-score is not below 0.6, F if it is.

Solved cases below.
| molecule | group |
| --- | --- |
| COc1cccc([C@H]2Oc3ccc(OC)cc3C(=NOC[C@@H](C)[C@H](OCc3ccccc3)C(C)C)[C@@H]2O)c1 | F |
| CCOC(=O)[C@H](Cc1ccccc1)NC(=O)CCC1CC(OC(=O)NCc2cccc3ccccc23)CC2(CCCC(COC(=O)NCc3cccc(C(F)(F)F)c3)O2)O1 (some centres not stated) | F |

Next molecule, please.
Threshold query (z-score >= 0.6) on COC(=O)[C@H](C)NC(=O)CCC1CC(OC(=O)NCc2ccc3c(c2)OCO3)CC2(CCCC(COC(=O)NCc3cccc(C(F)(F)F)c3)O2)O1 (some centres not stated) T
